Protein target, amino acids: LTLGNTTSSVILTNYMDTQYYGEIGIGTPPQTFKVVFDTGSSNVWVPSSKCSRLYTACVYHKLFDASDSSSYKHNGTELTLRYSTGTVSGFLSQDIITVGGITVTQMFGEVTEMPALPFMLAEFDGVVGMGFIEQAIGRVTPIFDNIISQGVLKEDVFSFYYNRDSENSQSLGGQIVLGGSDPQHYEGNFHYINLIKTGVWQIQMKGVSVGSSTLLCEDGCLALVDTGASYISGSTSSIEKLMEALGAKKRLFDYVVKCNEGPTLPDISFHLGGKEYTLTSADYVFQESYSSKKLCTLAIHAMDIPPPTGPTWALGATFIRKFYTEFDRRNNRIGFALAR
property-label: pIC50
// pIC50 here means minus log10 of the molar concentration (mol/L)

Value lookup for pIC50; key = CCCCNC(=O)[C@@H](C[C@H](O)[C@H](CC1CCCCC1)NC(=O)C(Cc1cccnc1)c1nnc2c(CCC)nc(-c3cccnc3)cn12)C(C)C (mixture of isomers) [Example 6]
9.70
